B1: LINE1-full (parent)
chain: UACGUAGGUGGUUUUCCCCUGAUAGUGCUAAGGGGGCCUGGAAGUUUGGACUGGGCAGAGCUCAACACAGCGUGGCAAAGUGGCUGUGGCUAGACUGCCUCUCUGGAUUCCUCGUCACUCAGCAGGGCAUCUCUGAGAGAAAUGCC

# Variants of: B1
# test summary: self-cleavage, relative activity (ratio to wild type); higher = more cleavage; in vitro, sequencing; the parent is a self-cleaving ribozyme
Kind request: treat 0.3 as inclusive, so self-cleavage at 0.3 or higher is TRUE, anything lower is FALSE.

Is reported self-cleavage greater than or equal to 0.3 here: "UACGUAGGUGGUUUUCCCCUGAUAGUGCUAAGGGGGCCUGGAAGUUUGGACUGGGUAGAGCUCAACACAGCGUGGCAAAGUGGCUGUGGCUAGACUGCCUCUCUGGAUUCCUCGUCACUCAGCAGGGCAUCUCUGAGUGAAAUGCC" FALSE

Is reported self-cleavage greater than or equal to 0.3 here: "UACGUAGGUGGUUUUCCCCUGAUAGUGCUAAGGGGGCCUGGAUGUUUGGACUGGGCAGAGCUCAACACAGCGUGGCAAAGUGGCUGUGGCUAGACUGCCUCUCUGGAUUCCUCGUCACUCAGCAGGGCAUCACUGAGAGAAAUGCC" TRUE

Is reported self-cleavage greater than or equal to 0.3 here: "UACGUAGGUGGUUUUCCCCUGAUAGUGCUAAGGGGGCCUGGAAGUUUGGACUGGGCAGAGCUCAACACAGCGUGGCGAAGUGGCUGUGGCUAGACUGCCUCUCUGGAUUCCUCGUCACUCAGCAGGGCAUCUCUGAAAGAAAUGCC" TRUE

Is reported self-cleavage greater than or equal to 0.3 here: "UACGUAGGUGGUUUUCCCCUGAUAGUGCUAAGGGGGCCUGGAAGUUUGGACUGGGCAGAGCUCUACACAGCGUGGCAAAGUGGCUGUGGCUAGACUGCCUCUCUGUAUUCCUCGUCACUCAGCAGGGCAUCUCUGAGAGAAAUGCC" TRUE

Is reported self-cleavage greater than or equal to 0.3 here: "UACGUAGGUGGUUUUCCCCUGAUAGUGCUAAGGGGACCUGGAAGUCUGGACUGGGCAGAGCUCAACACAGCGUGGCAAAGUGGCUGUGGCUAGACUGCCUCUCUGGAUUCCUCGUCACUCAGCAGGGCAUCUCUGAGAGAAAUGCC" TRUE

---
Is reported self-cleavage greater than or equal to 0.3 here: "UACGUAGGUGGUUUUCCCCUGAUCGUGCUAAGGGGGCCUGGAAGUUUGGACUGGGCAGAGCUCAACACAGCGCGGCAAAGUGGCUGUGGCUAGACUGCCUCUCUGGAUUCCUCGUCACUCAGCAGGGCAUCUCUGAGAGAAAUGCC" TRUE

Is reported self-cleavage greater than or equal to 0.3 here: "UACGUAGGUGGUUUUCCCCUGAUAGUGCUAAGGGGGCCUGGAAGUUUGGACUGGGCAGAGCUCAACACAGCGUGGCAAGGUGGCUGAGGCUAGACUGCCUCUCUGGAUUCCUCGUCACUCAGCAGGGCAUCUCUGAGAGAAAUGCC" FALSE

Is reported self-cleavage greater than or equal to 0.3 here: "UACGUAGGUGGUUUUCCCCUGAUAGUGCUAAGGGGGCCUGGAAGUUUGGACUGGGCAGAGCUCAACACAGCGUGGCAAAGUGGCUGUGGCUAGACUGCCCCUCUGGAUUCCUCGUCACUCAGCACGGCAUCUCUGAGAGAAAUGCC" TRUE

Is reported self-cleavage greater than or equal to 0.3 here: "UACGUAGGUGGUUUUCCCCUGAUAGUGCUAAGGGGGCCUGGAAGUUUGGACUGGGCAGAGCUCAACACAGCGUGGCAAAGUGGCUGUGGCUAGACUGCCUCUCAGGAUUCCUCGUCACUCAGCAGGGCAUCACUGAGAGAAAUGCC" TRUE

Is reported self-cleavage greater than or equal to 0.3 here: "UACGUAGGUGGUUUACCCCUGAUAGUGCUAAGGGGGCCUGGAAGUUUGGACUGGGCAGAGCUCAACACAGCAUGGCAAAGUGGCUGUGGCUAGACUGCCUCUCUGGAUUCCUCGUCACUCAGCAGGGCAUCUCUGAGAGAAAUGCC" TRUE

Is reported self-cleavage greater than or equal to 0.3 here: "UACGUAGGUGGUUUUCCCCGGAUAGUGCUAAGGGGGCCUGGAAGUUUGGACUGGGCAGAGCUCAACACAGCGUGGCAAAGUGGCUGUGGCUAGACUGCCCCUCUGGAUUCCUCGUCACUCAGCAGGGCAUCUCUGAGAGAAAUGCC" TRUE
